# key: entry, value: IC50
Molecular target: EGFR (d746-750 C797S) (Homo sapiens, UniProt P00533, C797S/DEL746-750)
Construct: purchased signalchem
Sequence (P00533 with tags, fused parts or gaps DEL746-750/C797S limits assumed): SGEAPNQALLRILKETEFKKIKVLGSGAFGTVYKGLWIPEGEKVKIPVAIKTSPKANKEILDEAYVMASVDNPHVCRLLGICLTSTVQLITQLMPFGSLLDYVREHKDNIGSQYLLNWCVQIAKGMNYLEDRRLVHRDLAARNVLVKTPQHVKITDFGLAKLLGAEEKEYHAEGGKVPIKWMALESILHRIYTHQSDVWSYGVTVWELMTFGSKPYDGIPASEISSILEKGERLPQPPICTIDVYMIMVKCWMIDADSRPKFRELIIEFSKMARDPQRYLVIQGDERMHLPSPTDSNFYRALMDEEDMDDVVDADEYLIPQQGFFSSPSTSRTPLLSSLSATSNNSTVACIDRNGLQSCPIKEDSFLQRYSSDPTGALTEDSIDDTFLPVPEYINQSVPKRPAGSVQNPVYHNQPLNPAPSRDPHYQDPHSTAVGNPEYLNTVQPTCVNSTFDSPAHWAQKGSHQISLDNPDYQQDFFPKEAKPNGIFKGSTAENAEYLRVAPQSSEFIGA
Assay: Inhibition of EGFR (d746-750 C797S) biochemical enzymatic activity (HTRF)
Conditions: IC50 @Del19-C797S, EGFR (d746-750 C797S), 1 mM ATP, 1 h at room temperature
Procedure: Biological Example 1: Inhibition of EGFR WT and Mutant Biochemical Enzymatic Activity The inhibition potency of compounds against these enzymes was assessed using Homogenous Time Resolved Fluorescence approach (HTRF, CisBio. Cat No. 62TKOPEJ). Inhibitory effects of the compounds were determined by measuring the enzymatic activity of EGFR enzyme phosphorylates 1 μM TK Substrate-biotin in the presence of 1 mM adenosine-5′-triphosphate (ATP) and varying concentrations of the test compound. […]
value type: IC50 (nM)

Cc1cc2cc(n1)-c1cnn(C)c1OCCN1CC3CCC(C3)(C1)n1c(nc3ccc(N4CCC(N(C)C)CC4)cc31)NC2=O (single isomer, unassigned) [Example B40B]	2.2
Cc1cc2cc(n1)-c1cnn(C)c1OCCCCCn1c(nc3ccc4c(c31)CCN(CCN(C)C)C4)NC2=O	6.5
Cc1cc2cc(n1)-c1cnn(C)c1OCCN1CC3CCC(C3)(C1)n1c(nc3ccc(N4CCC(N(C)C)CC4)cc31)NC2=O (single isomer, unassigned) [Example B40A]	2480
Cc1cc2cc(n1)-c1cnn(C)c1OCCN1CC3CCC(CC3)(C1)n1c(nc3ccc(N4CCC(N(C)C)CC4)cc31)NC2=O	6.3

###

# key: entry, value: GI50
Test system: A-431
Test: Cell proliferation assay, A-431 cells (GI50, Table 6)
Format: cell-based
Settings: Homo sapiens, A-431, A-431 cells
value type: GI50 (nM)

Cc1cc2cc(n1)-c1cnn(C)c1OCCN1CC3CCC(CC3)(C1)n1c(nc3ccc(N4CCN(C5CC5)CC4)cc31)NC2=O [Example B36]	3420
Cn1ncc2c1OCCN1CC3CCC(CC3)(C1)n1c(nc3ccc(N4CCN(C5CC5)CC4)cc31)NC(=O)c1cc-2c(=O)n(C)c1 [Example A128]	2650
CN1CCC12CCN(c1ccc3nc4n(c3c1)C13CCC(CC1)CN(CCOc1c(cnn1C)-c1cc(cn(C)c1=O)C(=O)N4)C3)CC2 [Example A122]	2100
CN(C)[C@H]1CCN(c2ccc3nc4n(c3c2)C23CCC(CC2)CN(CCOc2c(cnn2C)-c2cc(cn(C)c2=O)C(=O)N4)C3)C1 [Example A120]	7850
CCN1CCN(c2ccc3nc4n(c3c2)C23CCC(CN(CCOc5c(cnn5C)-c5cc(cc(C)n5)C(=O)N4)C2)C3)CC1 (single isomer, unassigned) [Example B56B]	426
CN1CCN(c2cc3c(cc2F)nc2n3C34CCC(CC3)CN(CCOc3c(cnn3C)-c3cc(cn(C)c3=O)C(=O)N2)C4)CC1 [Example A115]	3040
Cc1cc2cc(n1)-c1cnn(C)c1OCCN1CC3CCC(C3)(C1)n1c(nc3ccc(N4CC5CC4CN5C)cc31)NC2=O (single isomer, unassigned) [Example B53B]	2570
Cc1cc2cc(n1)-c1cnn(C)c1OCCN1CC3CCC(CC3)(C1)n1c(nc3ccc(N(C)CCCN(C)C)cc31)NC2=O [Example B33]	3740
Cc1cc2cc(n1)-c1cnn(C)c1OCCN1CC3CCC(C3)(C1)n1c(nc3ccc(N4CCC(N5CCOCC5)C4)cc31)NC2=O (single isomer, unassigned) [Example B44B]	929
Cc1cc2cc(n1)-c1cnn(C)c1OCCN1CC3CCC(CC3)(C1)n1c(nc3ccc(N4CC[C@H](N(C)C)C4)cc31)NC2=O [Example B28]	7810
C[C@@H]1CCCOc2ccccc2-c2cc(cn(C)c2=O)C(=O)Nc2nc3ccc(N4CCN(C)CC4)cc3n2C1 [Example A109]	489
Cc1cc2cc(n1)-c1cnn(C)c1OCCN1CC3CCC(CC3)(C1)n1c(nc3ccccc31)NC2=O [Example B1]	4390
